Target chain: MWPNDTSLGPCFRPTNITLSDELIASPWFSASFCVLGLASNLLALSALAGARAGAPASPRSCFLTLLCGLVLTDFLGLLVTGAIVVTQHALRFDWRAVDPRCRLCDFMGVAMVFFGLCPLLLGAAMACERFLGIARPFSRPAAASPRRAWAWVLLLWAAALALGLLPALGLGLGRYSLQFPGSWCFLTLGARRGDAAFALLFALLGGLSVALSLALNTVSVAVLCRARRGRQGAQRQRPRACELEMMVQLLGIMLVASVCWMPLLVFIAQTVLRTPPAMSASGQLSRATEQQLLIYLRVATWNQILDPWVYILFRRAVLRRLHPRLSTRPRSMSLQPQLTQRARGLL
pIC50: −log10 of the molar value.
Value kind: pIC50

P: Cc1cc(C)c(O)c(C(CCCCCC(=O)O)c2ccc(F)cc2)c1C (stereo not drawn) [Compound 1]
Q: C=CCON=Cc1c(C)c(C)c(O)c(C(CCCCCC(=O)O)c2ccc(F)cc2)c1C (stereo not drawn) [Compound 52]
QUERY: Of P and Q , which carries the smaller reported pIC50 figure? Answer with the label corresponding to your selection.
RESULT: P

a: Cc1c(C)c(C=O)c(C)c(C(CCCCCC(=O)O)c2ccc(F)cc2)c1O (stereo not drawn) [Compound 27]
b: Cc1c(C)c(C)c(C(CCCCCC(=O)O)c2ccc(F)cc2)c(O)c1C (stereo not drawn) [Compound 9]
c: Cc1c(C)c(Cl)c(C)c(C(CCCCCC(=O)O)c2ccc(F)cc2)c1O (stereo not drawn) [Compound 17]
QUERY: Order the entries by their reported pIC50, beginning at the minimum. Provide the labels, sequenced as the question asks.
RESULT: c, b, a
